Details: PAMPA
Where a SMILES comes first, the peptide text is derived from it. [ ]: non-standard residue; d: D form. NMeL = CN[C@@H](CC(C)C)C(=O)O; dNMeL = CN[C@H](CC(C)C)C(=O)O; dNMeA = CN[C@H](C)C(=O)O; Aib = CC(C)(N)C(=O)O

| molecule | PAMPA_R3 |
| --- | --- |
| CC[C@@H](C)[C@H]1NC(=O)[C@@H](CC(C)C)NC(=O)C(C)(C)NC(=O)[C@@H]2CCCN2C(=O)[C@@H]([C@H](C)CC)NC(=O)[C@@H](CC(C)C)NC(=O)C(C)(C)NC(=O)[C@@H]2CCCN2C1=O [Design D8.2, PRO AIB DLEU DILE PRO AIB DLEU DILE] (cyclo([Aib][dL][dI]P[Aib][dL][dI]P)) | 1.04E-05 |
| CC[C@H](C)[C@@H]1NC(=O)[C@@H](CC(C)C)N(C)C(=O)[C@H](CC(C)C)N(C)C(=O)[C@@H](C)N(C)C(=O)[C@@H](Cc2ccccc2)NC(=O)[C@H](C(C)C)NC(=O)[C@@H](C)NC(=O)[C@@H]2CCCN2C(=O)[C@H]2CCCN2C1=O [Design D9.10] (cyclo([dA]V[dF][dNMeA][NMeL][dNMeL]I[dP]P)) | 6.09E-07 |
| CC[C@@H](C)[C@H]1NC(=O)[C@H](Cc2ccccc2)NC(=O)[C@@H](C)NC(=O)[C@@H](CC(C)C)N(C)C(=O)[C@@H]2CCCN2C(=O)[C@H](C)NC(=O)[C@H]2CCCN2C(=O)[C@@H]2CCCN2C(=O)[C@@H](Cc2ccccc2)NC1=O [Design D9.41] (cyclo(AP[dNMeL][dA]F[dI][dF]P[dP])) | 3.41E-06 |

====

As shown below, each of these compounds has a reported PAMPA_R3 value.
Settings: PAMPA
Where a SMILES comes first, the peptide text is derived from it. [ ]: non-standard residue; d: D form. NMeL = CN[C@@H](CC(C)C)C(=O)O; dNMeL = CN[C@H](CC(C)C)C(=O)O; dNMeA = CN[C@H](C)C(=O)O; Aib = CC(C)(N)C(=O)O
attributeMeasured: PAMPA_R3

| compound | testResult |
| --- | --- |
| CC(C)C[C@H]1NC(=O)[C@H]2CCCN2C(=O)[C@H](CC(C)C)N(C)C(=O)[C@@H](C)N(C)C(=O)[C@@H](Cc2ccccc2)NC(=O)[C@@H](C(C)C)NC(=O)[C@H]2CCCN2C(=O)[C@@H](CC(C)C)NC1=O [Design D8.19, DPHE *DALA *LEU DPRO DLEU DLEU DPRO DVAL] (cyclo([NMeL][dP][dL][dL][dP][dV][dF][dNMeA])) | 2.33E-06 |
| CC[C@H](C)[C@@H]1NC(=O)[C@@H](CC(C)C)N(C)C(=O)[C@@H]2CCCN2C(=O)[C@H](C(C)C)NC(=O)C(C)(C)NC(=O)[C@H](CC(C)C)NC(=O)C(C)(C)NC(=O)[C@@H]2CCCN2C(=O)[C@H]2CCCN2C1=O [Design D9.1, DPRO PRO AIB LEU AIB VAL PRO *DLEU ILE] (cyclo([Aib]L[Aib]VP[dNMeL]I[dP]P)) | 1.63E-06 |
| CC[C@H](C)[C@@H]1NC(=O)[C@@H](C)NC(=O)[C@@H]2CCCN2C(=O)[C@H]2CCCN2C(=O)[C@@H]2CCCN2C(=O)[C@@H](C)NC(=O)[C@@H](Cc2ccccc2)NC(=O)[C@@H](CC(C)C)N(C)C(=O)[C@@H](CC(C)C)N(C)C1=O [Design D9.15] (cyclo([dA]I[dNMeL][dNMeL][dF][dA]P[dP]P)) | 6.20E-07 |
